Just for reference, PubChem BioAssay (NCI) is where these values come from.

- Test system: CCRF-CEM leukemia
- EXPERIMENTAL_PROTOCOL: NCI tumour cell line growth inhibition, 48 h
A collection of compounds and their measured TGI
ATTRIBUTE_MEASURED: TGI (µM)

COMPOUND: CN(C)Cc1cc(/C=C/C(=O)c2ccc(Br)cc2)cc(CN(C)C)c1O
QUALIFIER_SYMBOL: =
TEST_VALUE: 25.4
//
COMPOUND: CN1COCN=C1NC#N
QUALIFIER_SYMBOL: >
TEST_VALUE: 100
//
COMPOUND: CCOC(=O)/C=C(/C(=O)OCC)n1cc(C)c(=O)n(Cc2cn(CCCCOC(C)=O)nn2)c1=O
QUALIFIER_SYMBOL: =
TEST_VALUE: 2.31
//
COMPOUND: C[C@]12CCC3c4ccc(O)cc4CCC3C1CC[C@@H]2NC(=O)/C=C/c1ccc(O)c(O)c1 (some centres undefined)
QUALIFIER_SYMBOL: =
TEST_VALUE: 30
//
COMPOUND: Cc1cc(C)c(-c2c(O)c(Br)c(-c3c(C)cc(C)c(Br)c3C)c(O)c2Br)c(C)c1Br
QUALIFIER_SYMBOL: =
TEST_VALUE: 20.2
//
COMPOUND: Cc1cc(O)c2c(c1)OC1(C)CCC3C(C)(C)CCCC34COC2C14 (centres undefined)
QUALIFIER_SYMBOL: =
TEST_VALUE: 42.7
//
COMPOUND: C=C1C(=O)O[C@@H]2C[C@@H](C)[C@@H]3C=CC(=O)[C@@]3(C)[C@@H](OC(=O)CCCC(=O)O[C@H]3[C@@H]4C(=C)C(=O)O[C@@H]4C[C@@H](C)[C@@H]4C=CC(=O)[C@]43C)[C@H]12
QUALIFIER_SYMBOL: =
TEST_VALUE: 1.45
//
COMPOUND: O=C(C#Cc1ccccc1)NC/C=C/c1ccccc1
QUALIFIER_SYMBOL: >
TEST_VALUE: 100
//
COMPOUND: C/C(=N/NC(N)=S)C(CN1CCOCC1)C(C1=C(O)c2ccccc2OC1)c1ccccc1 (centres undefined)
QUALIFIER_SYMBOL: >
TEST_VALUE: 100

###

- System: M14 melanoma
- EXPERIMENTAL_PROTOCOL: NCI tumour cell line growth inhibition, 48 h; in the data active = GI50 below about 0.43 µM; inactive = the rest
Classes used: class 1 = active, class 0 = inactive

COMPOUND: C[C@]12CCC3c4ccc(O)cc4CCC3C1CC[C@@H]2NC(=O)/C=C/c1ccc(O)c(O)c1 (stereo partly specified)
EXPERIMENTAL_TARGET: M14 melanoma
CLASSIFICATION: class 0
--
COMPOUND: CCN(CC)c1ccc(/C=N/N=C(N)N)cc1
EXPERIMENTAL_TARGET: M14 melanoma
CLASSIFICATION: class 0
--
COMPOUND: CCCCC[C@H]1C/C=C2/C(=O)C=C[C@@H]2C/C=C\CCCC(=O)O1
EXPERIMENTAL_TARGET: M14 melanoma
CLASSIFICATION: class 1
--
COMPOUND: Fc1ccc(-c2ncn(C3CCNCC3)c2-c2ccnc(Oc3ccc(Cl)cc3)n2)cc1
EXPERIMENTAL_TARGET: M14 melanoma
CLASSIFICATION: class 0
--
COMPOUND: CSC(=S)NCc1cn(C)c2ccccc12
EXPERIMENTAL_TARGET: M14 melanoma
CLASSIFICATION: class 0
--
COMPOUND: O=C(OCC1=CC(=O)c2ccccc2C1=O)c1ccccc1
EXPERIMENTAL_TARGET: M14 melanoma
CLASSIFICATION: class 0
--
COMPOUND: CC(C)(O)c1cc(Nc2cc(Oc3cn(C4CC4)nc3C3CCOCC3)ccn2)ccn1
EXPERIMENTAL_TARGET: M14 melanoma
CLASSIFICATION: class 0
--
COMPOUND: C/C(=N\NC(=S)N1CCCC1)c1ccccn1
EXPERIMENTAL_TARGET: M14 melanoma
CLASSIFICATION: class 1
--
COMPOUND: COc1cc(C2CC(c3ccc(Cl)cc3)=NN2C(C)=O)ccc1Oc1ccnc2cc(Cl)ccc12 (stereo unspecified)
EXPERIMENTAL_TARGET: M14 melanoma
CLASSIFICATION: class 0
--
COMPOUND: CCOC(=O)/C=C/c1ccc([N+](=O)[O-])o1
EXPERIMENTAL_TARGET: M14 melanoma
CLASSIFICATION: class 0
--
COMPOUND: COc1ccc(N=c2nc3sc4cc(Cl)ccc4n3c(N)c2C#N)cc1
EXPERIMENTAL_TARGET: M14 melanoma
CLASSIFICATION: class 0
